Documented melting point across a set of molecules

Study these solved cases before continuing.
[
  {
    "Molecule": "O=C(CCc1cccnc1)NCCCC1CCN(C(c2ccccc2)c2ccccc2)CC1 [Substance 96]",
    "Recorded endpoint": "melting point",
    "Assay value": "109 to 110 °C"
  },
  {
    "Molecule": "O=C(CCc1cccnc1)NCCCCCC1CCN(C(c2ccccc2)c2ccccc2)CC1 [Substance 142]",
    "Recorded endpoint": "melting point",
    "Assay value": "112 to 114 °C"
  },
  {
    "Molecule": "O=C(COc1cccnc1)NCCCCC1CCN(C(c2ccccc2)c2ccccc2)CC1 [Substance 129]",
    "Recorded endpoint": "melting point",
    "Assay value": "103 to 105 °C"
  },
  {
    "Molecule": "O=C(CCc1cccnc1)NCCCCC1CCN(S(=O)(=O)c2ccc3ccccc3c2)CC1 [Substance 337]",
    "Recorded endpoint": "melting point",
    "Assay value": "103 to 105 °C"
  },
  {
    "Molecule": "O=C(C=Cc1cccnc1)NCCCCC1CCN(C(c2ccc(F)cc2)c2ccc(F)cc2)CC1 [Substance 171]",
    "Recorded endpoint": "melting point",
    "Assay value": "108 °C"
  }
]

### Prompt Look at this molecule and give its reported melting point. O=C(C=Cc1cccnc1)NCCCOC1CCN(Cc2ccccc2)CC1 [Substance 55]
### Response 100 to 102 °C

### Prompt Similarly, O=C(C=Cc1cccnc1)NCCCCC1CCN(C(=O)c2cccc3c2-c2ccccc2C3=O)CC1 [Substance 277] ?
### Response 80 to 82 °C

* * *

Counter-ions that a name gives are not always drawn.
Listed compounds paired with reported melting point

[
  {
    "Compound": "O=C(CCc1cccnc1)NCCCCC1CCN(C2c3ccccc3COc3ccccc32)CC1 (centres unmarked)",
    "melting point": "110 to 112 °C"
  },
  {
    "Compound": "O=C(C=Cc1cccnc1)NCC1CN(C(c2ccccc2)c2ccccc2)C1",
    "melting point": "72 to 74 °C"
  },
  {
    "Compound": "Cl.Cl.O=C(C=Cc1cccnc1)NCCCCC1CCNCC1",
    "melting point": "178 to 188 °C"
  },
  {
    "Compound": "O=C(C=Cc1cccnc1)NCCC1CCN(C(c2ccccc2)c2ccccc2)CC1",
    "melting point": "141 to 143 °C"
  },
  {
    "Compound": "CCN(CCCCC1CCN(C(c2ccccc2)c2ccccc2)CC1)C(=O)/C=C/c1cccnc1",
    "melting point": "115 to 117 °C"
  }
]

### Prompt // query melting point value for entry O=C(C=Cc1cccnc1)NCCCCC1CCN(C(c2ccccc2)c2ccccc2)CC1 (as salt: methanesulfonate)
### Response 156 °C

### Prompt Same for `O=C(C=CC=Cc1cccnc1)NCCCCC1CCN(C(c2ccccc2)c2ccccc2)CC1`
### Response 164 to 166 °C

### Prompt And `O=C(C=Cc1cccnc1)NCCCCC1CCN(Cc2ccccc2)CC1` ?
### Response 88 to 90 °C
